Target: PABPN1 (Homo sapiens, UniProt Q86U42)
Sequence (Q86U42 1-306): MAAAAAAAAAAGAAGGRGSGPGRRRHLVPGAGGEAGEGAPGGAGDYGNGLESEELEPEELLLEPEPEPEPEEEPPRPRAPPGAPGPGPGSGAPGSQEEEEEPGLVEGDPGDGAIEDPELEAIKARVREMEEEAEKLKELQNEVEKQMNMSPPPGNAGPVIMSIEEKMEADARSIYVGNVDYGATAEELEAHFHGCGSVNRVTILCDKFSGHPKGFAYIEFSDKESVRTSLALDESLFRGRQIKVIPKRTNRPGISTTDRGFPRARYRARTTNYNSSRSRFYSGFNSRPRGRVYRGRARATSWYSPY
# maps each entry to its pIC50
Answer as the number alone; pIC50 is minus log10 of concentration in mol/L.

Consider the reported pIC50 for these compounds:
CC(C(=O)O)c1ccc(-c2ccccc2)c(F)c1 (stereo not shown)
5.17
CC(C)(C)NC(=O)[C@@H]1C[C@@H]2CCCC[C@@H]2CN1C[C@@H](O)[C@H](Cc1ccccc1)NC(=O)[C@H](CC(N)=O)NC(=O)c1ccc2ccccc2n1
6.21
CNCC[C@H](Oc1cccc2ccccc12)c1cccs1
5.30

Now consider the entry below.
For OCCOCCN1CCN(C(c2ccccc2)c2ccc(Cl)cc2)CC1 (stereo not shown) [hydroxyzine] the compound record lists pIC50 as 5.04
